# TESTED_SYSTEM: Carbonic anhydrase 2 (Homo sapiens)
# TEST: CAII small-molecule binders, profiling panel, biochemical, small-molecule microarray, Alexa647-labelled CAII (AID 1122)
# MEASUREMENT_CONTEXT: CAII-A647 binding fluorescence, higher = more signal
Parameter: composite z-score. Scope: all listed entries.
When you answer, write just the number.

These recorded examples may help you get a feel for the data.
# MOLECULE, composite z-score
measured = [
    ("COC(=O)CC=C[C@@H](C)[C@@H](C=NOC[C@@H](O)COCc1ccco1)NS(=O)(=O)c1ccc(C)cc1", -0.485),
    ("O=C(NCCC[N+]1=CC=NC1c1ccccc1)N1CCCc2nc(-c3ccc(Br)cc3)ccc21 (configuration not stated)", -0.0214),
    ("CC[C@@H](c1ccccc1)n1c(=O)n2n(c1=O)[C@H]1[C@H](O)[C@@H]3O[C@@H]3C(=NOCc3ccccc3)[C@H]1CC2", 0.178),
]

IN: Form field - read-out: composite z-score; system: Carbonic anhydrase 2 (Homo sapiens); submitted item: "CC(CCN1CCCCc2nc(C)c(C)cc21)=NO[C@H](C)c1cn([C@@H]2COC[C@H]2O)nn1"
OUT: 0.616

IN: // same read-out, input: "C#CCCCON=C1[C@H]2CCn3c(=O)n(Cc4cc5c(cc4Cl)OCO5)c(=O)n3[C@H]2[C@H](O)[C@@H]2O[C@H]12"
OUT: -0.0303

IN: // same read-out, input: "CC(=O)OC[C@H]1O[C@@H](ON=C2[C@H]3CCn4c(=O)n(-c5ccccc5)c(=O)n4[C@H]3[C@H](O)[C@@H]3O[C@H]23)[C@H](OC(C)=O)[C@@H](OC(C)=O)[C@@H]1OC(C)=O"
OUT: 0.541

IN: // same read-out, input: "COc1ccc(COC(=O)NN=C2C[C@@H](O)[C@@H](O)[C@@H]3[C@@H]4C(=O)N([C@@H](C)c5ccccc5)C(=O)[C@@H]4CC[C@@H]23)cc1"
OUT: 0.171
